System: ANO2 (Homo sapiens)
Sequence (Q9NQ90 1-998): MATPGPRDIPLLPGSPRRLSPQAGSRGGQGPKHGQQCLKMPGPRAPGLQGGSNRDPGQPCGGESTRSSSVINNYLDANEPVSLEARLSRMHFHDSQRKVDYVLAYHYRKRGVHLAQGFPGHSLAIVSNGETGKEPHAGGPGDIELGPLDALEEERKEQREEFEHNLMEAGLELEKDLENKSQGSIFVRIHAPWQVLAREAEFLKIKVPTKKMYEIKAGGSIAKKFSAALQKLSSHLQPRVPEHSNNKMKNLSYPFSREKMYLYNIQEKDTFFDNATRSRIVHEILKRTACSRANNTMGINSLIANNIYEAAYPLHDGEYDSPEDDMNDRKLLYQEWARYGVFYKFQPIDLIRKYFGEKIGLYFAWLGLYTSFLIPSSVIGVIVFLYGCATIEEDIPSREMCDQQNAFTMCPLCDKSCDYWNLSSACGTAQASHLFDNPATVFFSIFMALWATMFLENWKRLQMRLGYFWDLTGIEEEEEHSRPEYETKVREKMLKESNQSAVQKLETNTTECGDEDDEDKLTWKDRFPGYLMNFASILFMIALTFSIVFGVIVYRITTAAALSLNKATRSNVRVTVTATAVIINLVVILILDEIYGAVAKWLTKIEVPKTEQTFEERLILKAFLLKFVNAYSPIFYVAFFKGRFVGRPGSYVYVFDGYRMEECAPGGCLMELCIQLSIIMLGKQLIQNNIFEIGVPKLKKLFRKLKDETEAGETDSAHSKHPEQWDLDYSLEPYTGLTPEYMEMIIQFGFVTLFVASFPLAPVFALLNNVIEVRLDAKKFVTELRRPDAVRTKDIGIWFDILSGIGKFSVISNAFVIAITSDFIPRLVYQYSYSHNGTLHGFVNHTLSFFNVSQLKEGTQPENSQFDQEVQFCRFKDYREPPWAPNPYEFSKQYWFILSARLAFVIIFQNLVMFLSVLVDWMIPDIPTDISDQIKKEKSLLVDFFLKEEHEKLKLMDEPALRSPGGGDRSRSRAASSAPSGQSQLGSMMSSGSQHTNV
Procedure text: YFP fluorescence quenching assay in FRT cells expressing human ANO2
Assay type: cell-based
Observable: pIC50
Field pIC50 (float): negative decimal logarithm of the concentration in molar.

Hello, please tell me recorded pIC50 for this one: "C=CC1=C(C)C2=Cc3c(C=C)c(C)c4[n]3[Fe]([Cl])[n]3c(c(C)c(CCC(=O)O)c3=CC3=NC(=C4)C(C)=C3CCC(=O)O)=CC1=N2" 5.39
